Value source: patent US20180338980A1

# IC50 annotations
Molecular target: P2X4 (Homo sapiens, UniProt Q99571)
Sequence (Q99571 1-388): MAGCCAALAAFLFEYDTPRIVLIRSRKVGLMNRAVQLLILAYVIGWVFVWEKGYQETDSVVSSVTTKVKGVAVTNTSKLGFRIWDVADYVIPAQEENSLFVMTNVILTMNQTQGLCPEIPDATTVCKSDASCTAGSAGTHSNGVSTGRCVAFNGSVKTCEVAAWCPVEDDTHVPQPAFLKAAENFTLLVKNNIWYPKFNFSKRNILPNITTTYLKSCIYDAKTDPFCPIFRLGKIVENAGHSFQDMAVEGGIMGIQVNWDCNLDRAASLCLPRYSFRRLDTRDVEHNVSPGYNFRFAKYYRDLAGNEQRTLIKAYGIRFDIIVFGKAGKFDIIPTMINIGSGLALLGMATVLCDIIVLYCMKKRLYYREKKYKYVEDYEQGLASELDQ
Experiment: Assay B: human P2X4 receptor cell line, mitochondrial photina luminescence (agonist Bz-ATP at EC50)
Assay type: cell-based
Design: host or cells: HEK 293 (recombinant, constitutively expressing; with mitochondrial photina in Assay B)
Details: HEK human P2X4 cell line, photina luminescence, agonist Bz-ATP at EC50, average
Protocol: The identification of agonists and antagonists of the P2X4 receptor from humans and […] also the quantification of the activity of the compounds of the invention was performed by use of recombinant cell lines. […] The test cell lines constitutively express the mouse or human P2X4 receptors. […] The strength of Fluo8 fluorescence signal or photina luminescence signal corresponds to the level of receptor activation. […] The resulting light signal is measured immediately in the luminometer.

- MOLECULE: "Cc1c(Br)ccc(Cl)c1CC(=O)Nc1ccc(Oc2cccc(Cl)c2)c(S(N)(=O)=O)c1"
  TARGET_SYSTEM: "P2X4 (Homo sapiens, UniProt Q99571)"
  IC50 / nM: 4100
- MOLECULE: "NS(=O)(=O)c1cc(NC(=O)Cc2ccccc2Cl)ccc1Oc1cccc(-c2nnn[nH]2)c1"
  TARGET_SYSTEM: "P2X4 (Homo sapiens, UniProt Q99571)"
  IC50 / nM: 3860
- MOLECULE: "CNC(=O)c1cccc(CC(=O)Nc2ccc(Oc3cccc(Cl)c3)c(S(N)(=O)=O)c2)c1"
  TARGET_SYSTEM: "P2X4 (Homo sapiens, UniProt Q99571)"
  IC50 / nM: 1350
- MOLECULE: "NS(=O)(=O)c1cc(NC(=O)Cc2ccccc2)ccc1Oc1ccc(F)cc1F"
  TARGET_SYSTEM: "P2X4 (Homo sapiens, UniProt Q99571)"
  IC50 / nM: 1110
- MOLECULE: "NS(=O)(=O)c1cc(NC(=O)Cc2ccccc2Cl)ccc1Oc1cccc(OC(F)(F)F)c1"
  TARGET_SYSTEM: "P2X4 (Homo sapiens, UniProt Q99571)"
  IC50 / nM: 73
- MOLECULE: "NS(=O)(=O)c1cc(NC(=O)Cc2ccccc2)ccc1OCC1CC1"
  TARGET_SYSTEM: "P2X4 (Homo sapiens, UniProt Q99571)"
  IC50 / nM: 5970
- MOLECULE: "NS(=O)(=O)c1cc(NC(=O)Cc2ccccc2Cl)ccc1OCC1CCOC1 (centres unmarked)"
  TARGET_SYSTEM: "P2X4 (Homo sapiens, UniProt Q99571)"
  IC50 / nM: 335
- MOLECULE: "NS(=O)(=O)c1cc(NC(=O)Cc2c(C(F)(F)F)ccc(Cl)c2Cl)ccc1Oc1cccc(Cl)c1"
  TARGET_SYSTEM: "P2X4 (Homo sapiens, UniProt Q99571)"
  IC50 / nM: 1050
